This collection of values is drawn from the supplement of paper PMC7125110.

B1: glmS ribozyme (parent)
chain: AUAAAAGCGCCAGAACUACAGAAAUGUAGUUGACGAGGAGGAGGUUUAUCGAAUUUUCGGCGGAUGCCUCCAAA

# Variants of: B1
# method: self-cleavage kobs at 640 uM GlcN6P; higher = faster cleavage; RNA array
# measurementParameters: with glucosamine-6-phosphate
Variants at the floor of the assay were thinned out.
Below is a list of entries, each paired with its recorded self-cleavage kobs at 640 uM GlcN6P value.

C11U C16U C71U = 0.000215 s⁻¹
G7C G29U A33G = < 1e-05 s⁻¹
U47G C68G = 8.26e-05 s⁻¹
G7U G37A A48C = < 1e-05 s⁻¹

Quote self-cleavage kobs at 640 uM GlcN6P reported for G13C A14C G32U U69C please. 8.31e-05 s⁻¹

Supply reported self-cleavage kobs at 640 uM GlcN6P belonging to this variant: G63U U65C < 1e-05 s⁻¹

Return reported self-cleavage kobs at 640 uM GlcN6P. Input variant: U49C C58A G60U < 1e-05 s⁻¹
